# reported Residual activity (%); entries follow
- Tested on: W-Pro21717
- protocol_summary: Reactions of W-Pro21717 with various protease inhibitors
- Assay type: biochemical, Pseudoalteromonas arctica PAMC 21717
- recorded_conditions: residual activity of W-Pro21717; inhibitor 1 mM
Give the value in % but do not write % after it.

Input line: Requested read-out: Residual activity (%). Entry: "[Cl][Hg][Cl]"
Output line: 23

Input line: Please look up its Residual activity (%): "O=C(O)CN(CCN(CC(=O)O)CC(=O)O)CC(=O)O"
Output line: 75

Input line: Can you look up the measured Residual activity (%) of "CC(=O)N[C@@H](CC(C)C)C(=O)N[C@@H](CC(C)C)C(=O)N[C@H](C=O)CCCNC(=N)N" for me?
Output line: 98

Input line: Would you mind telling me what Residual activity (%) value was observed for NC(=O)CI [Iodoacetamide] ?
Output line: 94

Input line: May I ask what Residual activity (%) has been recorded for CCN1C(=O)C=CC1=O [N-Ethylmaleimide] ?
Output line: 107

Input line: Looking for the measured Residual activity (%) of "Cc1ccc(S(=O)(=O)N[C@@H](CCCCN)C(=O)CCl)cc1" , can you help?
Output line: 137

Input line: Which Residual activity (%) is reported for this compound? "O=S(=O)(F)Cc1ccccc1"
Output line: 40

Origin of the recorded values: patent US9574185B2
